Tested on: SF-295 CNS
ASSAY DETAILS: NCI-60 one-dose screen, 48 h
STUDY CONDITIONS: 10 µM unless noted
The panel holds about 83,000 compounds, 20% with a hit somewhere; the sample as a whole holds those more often. Calls of active or inactive are those of the source. The calls were made as follows: active = growth percent below 10; inactive = the rest.
Give one outcome, nothing more. List: active, inactive

Problem: For this compound, state the assay outcome: NS(=O)(=O)c1ccc(NNC(=O)CCC(=O)c2ccccc2)cc1
Solution: inactive

Problem: Lab log entry: Cn1cc(NC(=O)c2cc(NC(=O)c3ccc(C#Cc4ccccc4)cc3)cn2C)cc1C(=O)NCCCN1CCOCC1 — outcome as called in the assay?
Solution: active

Problem: Record lookup: outcome of this test for COc1cc(/C=C/C(=O)c2nnn(-c3ccc(Cl)cc3)c2C)cc(OC)c1OC ?
Solution: inactive

Problem: Please share the test call associated with C=C1CCC2C3(C)COC(c4cc(F)cc(F)c4)OC3CCC2(C)C1CC(O)C1=CCOC1=O (stereo not given) .
Solution: inactive

Problem: Short answer needed: outcome of this test for O=C1C(=Nc2ccc(F)c(Cl)c2)c2cccc3cccc1c23 ?
Solution: inactive

Problem: Look up the recorded call for Cc1cccc(-c2nc(Nc3cccc(S(N)(=O)=O)c3)c3ccccc3n2)c1 in this test.
Solution: inactive

Problem: Tell me the assay call for O=C(c1ccccc1)c1ccc2nc(-c3ccc(F)cc3)[nH]c2c1 please.
Solution: inactive

Problem: Please let me know the test result on file for Cc1cc2nc3c4ccccc4n(CC4=NCCN4)c3nc2cc1C .
Solution: active

Problem: For O=C(Cn1c(/C=C/c2ccccc2)nc2ccccc2c1=O)Nc1ccccc1 , what call appears in the results of this test?
Solution: inactive

Problem: Please share the test call associated with COc1ccc(-c2ccnc(SCc3cc4ccccc4[nH]c3=O)n2)cc1 .
Solution: inactive

* * *

Test system: OVCAR-5 ovarian
ASSAY DETAILS: NCI-60 one-dose screen, 48 h (100 = growth as untreated, 0 = no growth, -100 = all killed)
STUDY CONDITIONS: 10 µM unless noted
Experimental: Growth inhibition of the OVCAR-5 human tumor cell line is measured as a screen for anti-cancer activity. Cells are grown in 96 well plates and exposed to the test compound for 48 hours. Compounds are tested at a single concentration, which is 10^-5 M for most compounds. The reported endpoint is percent growth (GI% or GIPRCNT), where numbers from 0 - 100% represent growth inhibition, and numbers from -100% - 0 represent cell death. For example, a value of 40 represents 60% growth inhibition. […]
This is part of a sample that, as a whole, favours compounds with a hit. Of some 83,000 tested, about 20% had one in any assay.
Please provide measured growth for the entries that follow.
Output spec: scalar in %, unitless text.

compound C#CCOc1ccc(/C=N/Nc2nc(-c3cc4cc(OC)ccc4oc3=O)cs2)cc1OC , growth observed: 47

response.value for CC1=C(C(=O)c2ccccc2)C(c2cccc3ccccc23)n2c(nc3ccccc32)N1 (stereo not given) (field: growth) = 68.4

compound COc1cc(C2CC(c3cc(OC)c(OC)c(OC)c3)=Nc3c(N)nc(N)nc3N2)ccc1Oc1nc(NCCO)nc(N2CCOCC2)n1 (stereo not given) , growth observed: 106

growth reported for this compound O=C(Cn1c(/C=C/c2ccccc2)nc2ccccc2c1=O)Nc1ccc(Cl)cc1 : 68.7

For this compound ( COc1ccc(/C=N/NC(=O)Cn2nc(Cc3ccc(OC)cc3)c3onc(C)c3c2=O)cc1 ), measured growth is 52.2

Lab note: Cn1cc(-c2cc3nc(-c4c[nH]c5ccc(Br)cc45)cc(N)n3n2)c2ccccc21 gave growth of -86.1

Value of measured growth for the entry CCN(CC)CCOc1ccc(Nc2ncc3cc(-c4ccc(O)c(C#N)c4)c(=O)n(C)c3n2)cc1 : 88.2

Record COc1ccc(-c2ccnc(SCc3cc4ccccc4[nH]c3=O)n2)cc1OC . Reported growth: -41

// growth value for COc1ccc2c(c1)c(-c1cc3nc(-c4cn(C)c5ncc(Br)cc45)cc(N)n3n1)cn2C : -47.6

Documented growth of COc1cc2oc(-c3cccc(C(=O)Nc4ccc(Cl)cc4)c3)cc(=O)c2c(OCCNC(=O)[C@@H](N)CCC(=O)O)c1OC : 76.9

* * *

Test system: TK-10 renal
ASSAY DETAILS: NCI-60 one-dose screen, 48 h
STUDY CONDITIONS: 10 µM unless noted
Compounds without any hit were thinned out: in the full panel of roughly 83,000, 20% have a hit. Calls of active or inactive are those of the source. How the source made its calls: active means growth percent below 10; inactive means the rest.
Choose one outcome from this list and give only that: active, inactive

Problem: What did the test return for Cc1cc2nc3c4ccccc4n(CCNCCN(C)C)c3nc2cc1C ?
Solution: inactive

Problem: Assay outcome for Cc1cc(C)cc(NC(=O)Cn2cc(COn3nnc4ccccc43)nn2)c1 : what was it?
Solution: inactive

Problem: Write down the call the test reported for this compound. Item: CN(C)c1nc(NCCNS(=O)(=O)c2ccc(C3=Nc4c(N)nc(N)nc4NC(c4ccc(C(F)(F)F)cc4)C3)cc2)nc(Nc2ccc(F)cc2)n1 (configuration not stated)
Solution: inactive

Problem: Record request — test call for CN1CCc2c(sc3ncnc(N/N=C/c4ccc(Cl)cc4Cl)c23)C1
Solution: active

Problem: Each compound tested received a call. Report the one for Cc1ccc(S(=O)(=O)c2nc(S(=O)(=O)c3ccc(C)cc3)c(N3CCC(O)CC3)s2)cc1 .
Solution: inactive

Problem: Assay result, entry O=C(Cn1c(/C=C/c2ccccc2)nc2ccccc2c1=O)Nc1ccccc1 — outcome?
Solution: inactive

Problem: Look up the recorded call for C=C1CC[C@@H]2[C@]3(C)COC(c4cn(-c5ccccc5)nc4-c4ccccc4)O[C@@H]3CC[C@@]2(C)[C@@H]1C/C=C1/C(=O)OC[C@H]1O (some centres not stated) in this test.
Solution: active

Problem: Could you please tell me the result logged for Cc1cc2c(cc1Cl)C(=O)/C(=C/c1ccccc1)O2 in this assay?
Solution: inactive

Problem: Could you kindly confirm the outcome this assay logged for CC(=O)OC[C@@]1(C)C2CC[C@]3(C)C(CC=C4C5CC(C)(C)CC[C@]5(C(=O)Nc5ccc(Br)cc5)CC[C@]43C)[C@@]2(C)C[C@@H](OC(C)=O)[C@@H]1OC(C)=O (some centres not stated) ?
Solution: inactive

Problem: Returns: the outcome recorded for CSc1ccc(NC(=O)c2ccc3nnn(/C(C#N)=C/c4ccccn4)c3c2)cc1 in this assay.
Solution: active

Problem: What classification did O=C(COc1ccc(NC(=O)Nc2ccc(Cl)c(Cl)c2)cc1)N=Nc1c(O)[nH]c2ccc(Cl)cc12 end up with in this test?
Solution: active

Problem: Hey, what did the test say about CC(=O)OC[C@@]1(C)C2CC[C@]3(C)C(CC=C4C5CC(C)(C)CC[C@]5(C(=O)Nc5cccc(C)c5)CC[C@]43C)[C@@]2(C)C[C@@H](OC(C)=O)[C@@H]1OC(C)=O (some centres not stated) ?
Solution: inactive

Problem: So what was the verdict on COc1cc(/C=C2\C(=N)N=C(SCc3nc4ccccc4[nH]3)NC2=O)ccc1O in this test?
Solution: inactive

Problem: Each compound tested received a call. Report the one for CCCSc1nc(NCCc2c[nH]c3ccccc23)c(C#N)c(-c2ccc(OC)cc2)n1 .
Solution: inactive

Problem: For COc1cc(C2CC(c3cc(OC)c(OC)c(OC)c3)=NN2c2ccccc2)ccc1OCc1ccc(C)cc1 (configuration not stated) , what call appears in the results of this test?
Solution: inactive

Problem: Hi, do you know how COc1ccc(N2N=C(c3ccc4c(c3)OCO4)CC2c2cccc(NC(=O)CCNS(=O)(=O)c3ccc(Cl)cc3)c2)cc1 (configuration not stated) came out in this test?
Solution: inactive

Problem: Each compound tested received a call. Report the one for Cn1cc(-c2nnc(N)nc2-c2c[nH]c3ccccc23)c2cccnc21 .
Solution: inactive

* * *

Tested on: SF-295 CNS
ASSAY DETAILS: NCI-60 one-dose screen, 48 h (100 = growth as untreated, 0 = no growth, -100 = all killed)
STUDY CONDITIONS: 10 µM unless noted
This is part of a sample that, as a whole, favours compounds with a hit. Of some 83,000 tested, about 20% had one in any assay.
READOUT TYPE: growth (%)
Field: numeric (%). Do not append units.

GET /value?item= Cn1cc(-c2cc(N)n3nc(-c4cn(C)c5ncc(Br)cc45)cc3n2)c2cc(Br)cnc21 &field=growth returns -63.5

Note to self: growth recorded for CCOC(=O)C1=C(N)N(c2ccccc2)C2=C(C(=O)CC(C)(C)C2)C1c1ccccc1Cl (stereo not given) was 75

# growth of CC(C)CSc1nc(NCCc2c[nH]c3ccccc23)c(C#N)c(-c2ccc(F)cc2)n1 = 46.7

Just so you know, measured growth for Brc1ccc(N/N=C/c2c[nH]c3ccc(Br)cc23)nc1 came out at -78.3

For record CCN(CC)c1ccnc(CNCCSC(c2ccccc2)(c2ccccc2)c2ccc(C)cc2)c1 the listed growth is -97

Value of measured growth for the entry Cc1ccc2c(N)c(C(=O)Nc3ccc(-c4ccccc4)cc3)sc2n1 : 45.6

For O=C(N1c2ccccc2Sc2ccccc21)n1ccc2cccnc21 the compound record lists growth as 81

Lookup result for C=C1CCC2C3(C)COC(c4ccc(F)cc4)OC3CCC2(C)C1C/C=C1/C(=O)OCC1O (stereo not given) ; measured growth: -8.06

Measured growth, O=C(/C=C/c1cccc(OCc2ccccc2)c1)c1nc2ccccc2[nH]1 : 69.9

Entry under test: COc1ccc(NC(=O)Nc2ccc(OCc3ccc(F)cc3)cc2)cc1 . Its growth was 102
